Assay Target: human CTLA-4 (Y166G and Y183G) expressed on CHO-K1.hCTLA-4 cells (human, UniProt P16410 36-223)
Sequence (P16410 36-223 Y201G/Y218G limits assumed): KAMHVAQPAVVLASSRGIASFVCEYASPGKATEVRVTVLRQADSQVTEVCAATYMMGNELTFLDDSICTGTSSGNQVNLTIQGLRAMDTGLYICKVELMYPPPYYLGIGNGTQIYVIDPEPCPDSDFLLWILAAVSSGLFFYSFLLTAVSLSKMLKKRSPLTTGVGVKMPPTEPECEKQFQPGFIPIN
Assay: CELISA, blockade of biotinylated hCD80/Fc binding to CHO-K1.hCTLA-4 cells
Value Type: IC50 (nM)
Reply with just the number (in nM).

Solved entries:
Recorded IC50 for hCTLA4.27H1L5 (antibody, human IgG4 S228P, kappa, V domains shown, Humanized, human IgG4 (S228P) kappa; H1 read as hCTLA4.27VH1, L5 as hCTLA4.27VL5) VH: EVQLLQSGAVLARPGTSVKISCKASGYSFTTYWMNWVKQRPGQGLEWIGMIHPSDSETSLNQAFKDKAKLTAATSASIAYLEFSSLTNEDSAVYYCARMGRRNPYYFDYWGQGTLVTVSS VL: DIQMTQAPSSLSASVGDRVTITCRPSENLYTNLAWYQQKPGKAPKLLLYGATNLADGVPSRFSGSGSGTDYTLTISSLQAEDFATYYCQHLWGTPFTFGGGTKLEIKR , please?
3.44

Consider next the binder hCTLA4.27H3L1 (antibody, human IgG4 S228P, kappa, V domains shown, Humanized, human IgG4 (S228P) kappa; H3 read as hCTLA4.27VH3, L1 as hCTLA4.27VL1) VH: EVQLVQSGAVVAKPGSSVKVSCKASGYSFTTYWMNWVRQAPGQGLEWMGMIHPSDSETSLNQAFKDRVTITADKSTSTAYMELSSLTSEDTAVYYCARMGRRNPYYFDYWGQGTTVTVSS VL: DIQMTQSPSSLSASVGDRVTITCRPSENLYTNLAWYQQKPGKAPKLLLYGATNLADGVPSRFSGSGSGTDYTLTISSLQPEDFATYYCQHLWGTPFTFGQGTKLEIKR in the same way.
2.52

Consider next the binder hCTLA4.27H1L2 (antibody, human IgG4 S228P, kappa, V domains shown, Humanized, human IgG4 (S228P) kappa; H1 read as hCTLA4.27VH1, L2 as hCTLA4.27VL2) VH: EVQLLQSGAVLARPGTSVKISCKASGYSFTTYWMNWVKQRPGQGLEWIGMIHPSDSETSLNQAFKDKAKLTAATSASIAYLEFSSLTNEDSAVYYCARMGRRNPYYFDYWGQGTLVTVSS VL: DIQMTQSPSSLSASVGDRVTITCRPSENLYTNLAWYQQKPGKAPKLLIYGATNLADGVPSRFSGSGSGTEFSLSISSLQPEDFATYYCQHLWGTPFTFGGGTKVEIKR in the same way.
2.72

Consider next the binder hCTLA4.27H5L3 (antibody, human IgG4 S228P, kappa, V domains shown, Humanized, human IgG4 (S228P) kappa; H5 read as hCTLA4.27VH5, L3 as hCTLA4.27VL3) VH: EVQLLQAGAVLARPGTSVKISCKASGYSFTTYWMNWVKQRPGKGLEWIGMIHPSDSETSLNQAFKDKAKLTAATSASIAYLEFSSLTNEDSAVYYCARIGRRNPYYFDYWGQGTLVTVSS VL: DIQMTQSPSSLSASVGDTVTITCRPSENLYTNLAWYQQKPGKAPKLLLYGATNLADGVPSRFSGSGSGTDYTLTISSLQSEDFATYYCQHLWGTPFTFGQGTKLEIKR in the same way.
2.57

Consider next the binder hCTLA4.27H6L1 (antibody, human IgG4 S228P, kappa, V domains shown, Humanized, human IgG4 (S228P) kappa; H6 read as hCTLA4.27VH6, L1 as hCTLA4.27VL1) VH: EVQLLESGPELVRPGSSVKISCKASGYSFTTYWMNWVKQRPGKGLEWIGMIHPSDSETSLNQAFKDKVKLTAATSASIAYLEFSSLRNEDSAVYYCARMGRRNPYYFDYWGQGTLVTVSS VL: DIQMTQSPSSLSASVGDRVTITCRPSENLYTNLAWYQQKPGKAPKLLLYGATNLADGVPSRFSGSGSGTDYTLTISSLQPEDFATYYCQHLWGTPFTFGQGTKLEIKR in the same way.
2.06

Please look at the following binder next.
Recorded IC50 for hCTLA4.27H2L3 (antibody, human IgG4 S228P, kappa, V domains shown, Humanized, human IgG4 (S228P) kappa; H2 read as hCTLA4.27VH2, L3 as hCTLA4.27VL3) VH: EVQLVQSGAVLVKPGASVKVSCKASGYSFTTYWMNWVRQRPGKGLEWIGMIHPSDSETSLNQAFKDKVTITADESTSTAYMQLSSLRSEDTAVYYCARMGRRNPYYFDYWGQGTTVTVSS VL: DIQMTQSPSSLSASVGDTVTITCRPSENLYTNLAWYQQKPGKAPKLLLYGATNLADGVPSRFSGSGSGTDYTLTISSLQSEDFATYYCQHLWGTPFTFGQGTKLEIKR , please?
2.97
